Data origin: patent US7863271B2

target: 5-HT3 (Homo sapiens, UniProt P46098); experiment: Compound affinity for the human 5-HT3 receptor (Assay B), SPA radioligand binding with [9-methyl-3H]BRL-43694; set-up: purchased Perkin Elmer; conditions: Assay B (method B unless otherwise annotated); read-out: 5-HT3 Ki
Sequence (P46098 24-478): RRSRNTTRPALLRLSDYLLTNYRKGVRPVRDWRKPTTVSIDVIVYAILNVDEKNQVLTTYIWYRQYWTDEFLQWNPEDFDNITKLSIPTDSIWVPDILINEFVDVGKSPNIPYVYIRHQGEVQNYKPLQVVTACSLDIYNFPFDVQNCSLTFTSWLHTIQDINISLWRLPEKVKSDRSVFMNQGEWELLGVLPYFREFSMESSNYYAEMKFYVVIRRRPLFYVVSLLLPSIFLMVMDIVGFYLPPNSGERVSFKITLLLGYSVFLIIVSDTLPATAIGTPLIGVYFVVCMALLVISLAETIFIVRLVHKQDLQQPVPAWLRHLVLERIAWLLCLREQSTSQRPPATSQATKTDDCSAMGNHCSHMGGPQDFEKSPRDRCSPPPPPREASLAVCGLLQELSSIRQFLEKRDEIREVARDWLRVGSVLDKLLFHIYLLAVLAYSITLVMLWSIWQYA
pKi: −log10 of the molar value. Where a name gives a salt, the structure may show the parent alone.
Label condition not met if pKi falls below 8; label condition met in every other case.

MOLECULE	CATEGORY
CN1C[C@H]2C[C@@H](NC(=O)c3cccc4oc(Nc5ccccc5)nc34)C[C@@H](C1)N2C [Example 51, Hydrochloride]	condition not met
O=C(N[C@@H]1CN2CCC1CC2)c1cccc2oc(N3CCCCC3)nc12 [Example 4, hydrochloride]	condition not met
CNc1nc2c(C(=O)N[C@H]3C[C@H]4CCC[C@@H](C3)N4C)cccc2o1 [Example 34, Hydrochloride]	condition met
C[C@H]1CN(C(=O)N2CCCCC2)C[C@H](C)N1c1nc2c(C(=O)NC3CC4CCCC(C3)N4C)cccc2o1 (stereo partly drawn) [Example 141, hydrochloride]	condition met
CN1C2CCCC1CC(NC(=O)c1cccc3oc(N4CCOC[C@@H]4CO)nc13)C2 (stereo partly drawn) [Example 94, Hydrochloride]	condition not met
CN1CCN(c2nc3c(C(=O)N[C@H]4C[C@H]5CCC[C@@H](C4)N5C)cccc3o2)C(c2ccccc2)C1 (mixture of isomers) [Example 23, Dihydrochloride]	condition not met
C[C@H]1CN(CC(F)(F)F)C[C@H](C)N1c1nc2c(C(=O)NC3CC4CCCC(C3)N4C)cccc2o1 (stereo partly drawn) [Example 137, Hydrochloride]	condition met
CC1CNCCN1c1nc2c(C(=O)N[C@H]3C[C@H]4CCC[C@@H](C3)N4C)cccc2o1 (stereo partly drawn) [Example 25, Dihydrochloride]	condition not met
C[C@H]1CNC[C@H](C)N1c1nc2c(C(=O)NC3CN4CCC3CC4)ccc(F)c2o1 (stereo partly drawn) [Example 118, hydrochloride]	condition not met
CC(C)N(C)c1nc2c(C(=O)N[C@@H]3CN4CCC3CC4)cccc2o1 [Example 85, Hydrochloride]	condition not met
C[C@H]1CN(C)C[C@H](C)N1c1nc2c(C(=O)NC3CC4CCCC(C3)N4C)cccc2o1 (stereo partly drawn) [Example 122, Hydrochloride]	condition met
CN1[C@@H]2CCC[C@H]1C[C@@H](NC(=O)c1cccc3oc(N4CCC[C@H]4C(N)=O)nc13)C2 [Example 53, Hydrochloride]	condition not met
C[C@H]1CN(C(=O)N2CCCC2)C[C@H](C)N1c1nc2c(C(=O)NC3CC4CCCC(C3)N4C)cccc2o1 (stereo partly drawn) [Example 140, hydrochloride]	condition met
CN(C)CCNc1nc2c(C(=O)N[C@H]3C[C@H]4CCC[C@@H](C3)N4C)cccc2o1 [Example 32, Trihydrochloride]	condition not met
C[C@H]1COC[C@H](C)N1c1nc2c(C(=O)NC3CC4COCC(C3)N4C)cccc2o1 (stereo partly drawn) [Example 88, Hydrochloride]	condition not met
O=C(N[C@@H]1CN2CCC1CC2)c1cccc2oc(N3CCNCC3)nc12 [Example 22, Dihydrochloride]	condition not met
CC(C)C[C@H]1COCCN1c1nc2c(C(=O)NC3CC4CCCC(C3)N4C)cccc2o1 (stereo partly drawn) [Example 67, Hydrochloride]	condition met
